target: G12V antigen peptide presented on SW620-DPB cells (SW620 expressing HLA-DPB1*03:01) (human); assay: cell-based or functional assay
assay-metric: EC50 µg/ml (Functional Avidity)

State the recorded EC50 µg/ml (Functional Avidity) for this entry: β48Y-F (TCR) TCR alpha: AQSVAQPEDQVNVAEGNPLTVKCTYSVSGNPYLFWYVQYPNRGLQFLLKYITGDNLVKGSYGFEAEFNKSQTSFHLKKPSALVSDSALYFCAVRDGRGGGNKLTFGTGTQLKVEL TCR beta: GITQSPKYLFRKEGQNVTLSCEQNLNHDAMYWYRQDPGQGLRLIYFSQIVNDFQKGDIAEGYSVSREKKESFPLTVTSAQKNPTAFYLCASSPGQRDNSPLHFGNGTRLTVT
9.51 µg/mL

State the recorded EC50 µg/ml (Functional Avidity) for this entry: β50Q-N (TCR) TCR alpha: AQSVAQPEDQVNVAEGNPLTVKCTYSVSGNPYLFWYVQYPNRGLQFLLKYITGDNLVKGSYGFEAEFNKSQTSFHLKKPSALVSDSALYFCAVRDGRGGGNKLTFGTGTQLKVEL TCR beta: GITQSPKYLFRKEGQNVTLSCEQNLNHDAMYWYRQDPGQGLRLIYYSNIVNDFQKGDIAEGYSVSREKKESFPLTVTSAQKNPTAFYLCASSPGQRDNSPLHFGNGTRLTVT
1.19 µg/mL

State the recorded EC50 µg/ml (Functional Avidity) for this entry: β56Q-T (TCR) TCR alpha: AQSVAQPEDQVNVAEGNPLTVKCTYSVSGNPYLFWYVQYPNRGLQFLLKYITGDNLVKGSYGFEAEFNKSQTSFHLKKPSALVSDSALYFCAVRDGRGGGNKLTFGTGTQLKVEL TCR beta: GITQSPKYLFRKEGQNVTLSCEQNLNHDAMYWYRQDPGQGLRLIYYSQIVNDFTKGDIAEGYSVSREKKESFPLTVTSAQKNPTAFYLCASSPGQRDNSPLHFGNGTRLTVT
1.76 µg/mL

State the recorded EC50 µg/ml (Functional Avidity) for this entry: α49K-S (TCR) TCR alpha: AQSVAQPEDQVNVAEGNPLTVKCTYSVSGNPYLFWYVQYPNRGLQFLLSYITGDNLVKGSYGFEAEFNKSQTSFHLKKPSALVSDSALYFCAVRDGRGGGNKLTFGTGTQLKVEL TCR beta: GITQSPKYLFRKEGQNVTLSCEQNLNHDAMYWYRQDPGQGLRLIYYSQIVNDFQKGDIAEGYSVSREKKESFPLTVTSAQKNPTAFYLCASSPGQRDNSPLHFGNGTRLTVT
1.21 µg/mL

State the recorded EC50 µg/ml (Functional Avidity) for this entry: β56Q-L (TCR) TCR alpha: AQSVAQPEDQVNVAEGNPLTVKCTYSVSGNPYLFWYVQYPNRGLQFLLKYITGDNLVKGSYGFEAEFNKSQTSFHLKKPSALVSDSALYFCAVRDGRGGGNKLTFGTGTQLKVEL TCR beta: GITQSPKYLFRKEGQNVTLSCEQNLNHDAMYWYRQDPGQGLRLIYYSQIVNDFLKGDIAEGYSVSREKKESFPLTVTSAQKNPTAFYLCASSPGQRDNSPLHFGNGTRLTVT
1.41 µg/mL
